# systemName: T1, human MSLN-R3-his protein (human, UniProt Q13421 487-598)
# T1 construct: it is put last here; also called human MSLN-R3 protein; hMSLN-R3-his; not shown: His tag
# T1 sequence (Q13421 495-606): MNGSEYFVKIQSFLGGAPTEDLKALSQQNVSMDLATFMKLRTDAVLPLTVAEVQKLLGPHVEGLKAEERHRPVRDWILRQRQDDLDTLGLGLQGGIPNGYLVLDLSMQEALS
# protocol: ELISA on coated antigen, antibody 0.002 nM
measuredEndpoint: OD450 (OD)
Return type: number; implicit unit OD.

Request: I am curious: what OD450 value has been reported for S009-F7.6.17 (antibody, human IgG1, kappa, V domains shown, Human-murine chimeric antibody, human IgG1 heavy and kappa light constant regions) VH: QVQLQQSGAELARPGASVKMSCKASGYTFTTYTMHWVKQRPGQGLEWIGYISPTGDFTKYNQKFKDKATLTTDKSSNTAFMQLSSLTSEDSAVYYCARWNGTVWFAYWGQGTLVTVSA VL: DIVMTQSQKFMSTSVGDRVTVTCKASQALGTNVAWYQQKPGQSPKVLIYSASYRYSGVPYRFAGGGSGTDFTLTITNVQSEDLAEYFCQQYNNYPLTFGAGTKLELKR ?
Response: 0.56

Request: What value of OD450 has been reported for the following binder? S009-F7.48.1 (antibody, human IgG1, kappa, V domains shown, Human-murine chimeric antibody, human IgG1 heavy and kappa light constant regions) VH: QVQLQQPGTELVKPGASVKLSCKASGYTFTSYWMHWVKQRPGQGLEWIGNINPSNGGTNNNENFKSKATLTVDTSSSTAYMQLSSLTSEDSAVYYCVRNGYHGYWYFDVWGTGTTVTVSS VL: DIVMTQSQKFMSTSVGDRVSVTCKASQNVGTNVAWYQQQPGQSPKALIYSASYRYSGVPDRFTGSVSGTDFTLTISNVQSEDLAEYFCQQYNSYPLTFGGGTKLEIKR
Response: 0.08

Request: Looking for the measured OD450 of S009-F7.53.2 (antibody, human IgG1, kappa, V domains shown, Human-murine chimeric antibody, human IgG1 heavy and kappa light constant regions) VH: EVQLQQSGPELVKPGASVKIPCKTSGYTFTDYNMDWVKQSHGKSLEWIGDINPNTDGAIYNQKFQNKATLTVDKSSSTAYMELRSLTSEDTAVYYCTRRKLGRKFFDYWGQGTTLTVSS VL: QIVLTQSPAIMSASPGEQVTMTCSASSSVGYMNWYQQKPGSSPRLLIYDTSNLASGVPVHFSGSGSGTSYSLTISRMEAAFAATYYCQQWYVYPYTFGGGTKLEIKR , can you help?
Response: 0.06
